study_target: Tubulin (Bos taurus) (UniProt Q6B856+Q862L2+Q862F3)
measurement_notes: Ratio of ED50 for microtubule polymerization to ED50 for paclitaxel; Relative paclitaxel ED50 = 1.0
Format: functional
property_name: Ratio
Answer field: number only, no words.

CC(=O)O[C@H]1C(=O)[C@]2(C)[C@@H](O)CC3OC[C@@]3(OC(C)=O)[C@H]2[C@H](OC(=O)c2ccc(Cl)cc2)[C@]2(O)C[C@H](OC(=O)[C@H](O)[C@@H](NC(=O)c3ccccc3)c3ccccc3)C(C)=C1C2(C)C (stereo partly drawn) ... 0.79
CC(=O)O[C@H]1C(=O)[C@]2(C)[C@@H](O)CC3OC[C@@]3(OC(C)=O)[C@H]2[C@H](OC(=O)c2ccc(Cl)c(Cl)c2)[C@]2(O)C[C@H](OC(=O)[C@H](O)[C@@H](NC(=O)c3ccccc3)c3ccccc3)C(C)=C1C2(C)C (stereo partly drawn) ... 0.45

State, in one line, measured Ratio of CC(=O)O[C@H]1C(=O)[C@@]2(C)[C@H]([C@H](OC(=O)c3ccccc3)[C@]3(O)C[C@H](OC(=O)[C@H](O)[C@@H](NC(=O)c4ccccc4)c4ccccc4)C(C)=C1C3(C)C)[C@]1(OC(C)=O)CO[C@@H]1C[C@@H]2O [PACLITAXEL] 1

Complete the entry with Ratio for CC(=O)O[C@H]1C(=O)[C@]2(C)[C@@H](O)CC3OC[C@@]3(OC(C)=O)[C@H]2[C@H](OC(=O)c2cccc([N+](=O)[O-])c2)[C@]2(O)C[C@H](OC(=O)[C@H](O)[C@@H](NC(=O)c3ccccc3)c3ccccc3)C(C)=C1C2(C)C (stereo partly drawn) 1.3

Given the compound CC(=O)O[C@H]1C(=O)[C@]2(C)[C@@H](O)CC3OC[C@@]3(OC(C)=O)[C@H]2[C@H](OC(=O)c2cc(Cl)cc(Cl)c2)[C@]2(O)C[C@H](OC(=O)[C@H](O)[C@@H](NC(=O)c3ccccc3)c3ccccc3)C(C)=C1C2(C)C (stereo partly drawn) , write its reported Ratio. 0.98

# return recorded Ratio for entry COc1ccc(C(=O)O[C@H]2[C@H]3[C@](C)(C(=O)[C@H](OC(C)=O)C4=C(C)[C@@H](OC(=O)[C@H](O)[C@@H](NC(=O)c5ccccc5)c5ccccc5)C[C@]2(O)C4(C)C)[C@@H](O)CC2OC[C@]23OC(C)=O)cc1 (stereo partly drawn) 6

Hello, please tell me recorded Ratio for this one: CC(=O)O[C@H]1C(=O)[C@]2(C)[C@@H](O)CC3OC[C@@]3(OC(C)=O)[C@H]2[C@H](OC(=O)c2cccc(Cl)c2)[C@]2(O)C[C@H](OC(=O)[C@H](O)[C@@H](NC(=O)c3ccccc3)c3ccccc3)C(C)=C1C2(C)C (stereo partly drawn) 1.1

----------
study_target: Tubulin (Bos taurus) (UniProt Q6B856+Q862L2+Q862F3)
measurement_notes: Ratio of ED50 for microtubule polymerization to ED50 for paclitaxel; Relative paclitaxel ED50 = 1.0
Assay type: functional
Recorded Ratio values for a group of molecules are listed next.

CC(=O)O[C@H]1C(=O)[C@]2(C)[C@@H](O)CC3OC[C@@]3(OC(C)=O)[C@H]2[C@H](OC(=O)c2cccc(C(F)(F)F)c2)[C@]2(O)C[C@H](OC(=O)[C@H](O)[C@@H](NC(=O)c3ccccc3)c3ccccc3)C(C)=C1C2(C)C (stereo not given in full) ... 0.64
CC(=O)O[C@H]1C(=O)[C@]2(C)[C@@H](O)CC3OC[C@@]3(OC(C)=O)[C@H]2[C@H](OC(=O)c2cccc(C)c2)[C@]2(O)C[C@H](OC(=O)[C@H](O)[C@@H](NC(=O)c3ccccc3)c3ccccc3)C(C)=C1C2(C)C (stereo not given in full) ... 1.7
CC(=O)O[C@H]1C(=O)[C@]2(C)[C@@H](O)CC3OC[C@@]3(OC(C)=O)[C@H]2[C@H](OC(=O)c2ccc(F)cc2)[C@]2(O)C[C@H](OC(=O)[C@H](O)[C@@H](NC(=O)c3ccccc3)c3ccccc3)C(C)=C1C2(C)C (stereo not given in full) ... 3.2
CC(=O)O[C@H]1C(=O)[C@]2(C)[C@@H](O)CC3OC[C@@]3(OC(C)=O)[C@H]2[C@H](OC(=O)c2ccccc2C)[C@]2(O)C[C@H](OC(=O)[C@H](O)[C@@H](NC(=O)c3ccccc3)c3ccccc3)C(C)=C1C2(C)C (stereo not given in full) ... 1.1

Next molecule, please.
Supply Ratio value. Item: CC(=O)O[C@H]1C(=O)[C@]2(C)[C@@H](O)CC3OC[C@@]3(OC(C)=O)[C@H]2[C@H](OC(=O)c2ccc(C)cc2)[C@]2(O)C[C@H](OC(=O)[C@H](O)[C@@H](NC(=O)c3ccccc3)c3ccccc3)C(C)=C1C2(C)C (stereo not given in full) 1.6

Values from ChEMBL document CHEMBL1128118
